Target: T1, 4H335-AA
T1 chain: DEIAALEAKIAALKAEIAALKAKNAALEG
Assay: two-hybrid library CCmax;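 also: natural log of median RNA to DNA barcode read ratio; higher means stronger binding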
Settings: mean of both orientations
measured_quantity: interaction score

Reference set, count: 2
[[record]]
binder = "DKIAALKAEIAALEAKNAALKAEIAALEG [4H2617-AA]"
value_observed = 0.00978

[[record]]
binder = "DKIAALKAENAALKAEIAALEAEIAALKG [4H2754-AA]"
value_observed = -0.745


1 = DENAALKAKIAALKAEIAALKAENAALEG [4H1867-AA]
2 = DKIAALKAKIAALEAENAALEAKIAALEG [4H2837-AA]
Query :: Among 1 and 2 , whose measured interaction score is the smaller figure? # reply format: chosen label
Result :: 1
